test target: KHS1 (Homo sapiens (Human))
Sequence (Q9Y4K4 whole entry): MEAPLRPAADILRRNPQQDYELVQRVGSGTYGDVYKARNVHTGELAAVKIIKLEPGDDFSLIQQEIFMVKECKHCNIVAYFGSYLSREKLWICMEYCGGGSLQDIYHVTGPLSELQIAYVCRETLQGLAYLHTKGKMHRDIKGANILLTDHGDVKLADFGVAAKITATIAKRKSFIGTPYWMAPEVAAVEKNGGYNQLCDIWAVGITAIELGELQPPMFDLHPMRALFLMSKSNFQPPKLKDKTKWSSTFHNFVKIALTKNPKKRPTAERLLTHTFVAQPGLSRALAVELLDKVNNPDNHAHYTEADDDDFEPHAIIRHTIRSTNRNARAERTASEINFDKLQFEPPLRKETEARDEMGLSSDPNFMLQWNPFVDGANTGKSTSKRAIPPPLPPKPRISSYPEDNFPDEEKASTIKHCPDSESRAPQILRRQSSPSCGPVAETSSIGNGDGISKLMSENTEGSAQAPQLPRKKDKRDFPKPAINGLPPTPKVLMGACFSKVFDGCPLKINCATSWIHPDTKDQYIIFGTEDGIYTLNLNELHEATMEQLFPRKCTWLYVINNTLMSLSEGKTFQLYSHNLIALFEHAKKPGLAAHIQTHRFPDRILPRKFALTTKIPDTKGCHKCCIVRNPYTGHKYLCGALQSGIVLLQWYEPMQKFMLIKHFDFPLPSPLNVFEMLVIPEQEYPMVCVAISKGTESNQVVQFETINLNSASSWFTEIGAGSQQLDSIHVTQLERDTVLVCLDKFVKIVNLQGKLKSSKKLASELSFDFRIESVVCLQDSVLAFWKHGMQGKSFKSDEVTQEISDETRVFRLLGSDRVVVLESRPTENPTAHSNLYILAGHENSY
assay overview: KiNativ assay
Assay type: binding
experimental parameters: H929 live cell, read-out: inhibition (10 μM)
Description: Biochemical IC50s of the compounds of the present disclosure against various kinases were measured in a KiNativ assay. Compounds were screened in duplicate at 10 μM in H929 live cell. IC50 was measured via Mass spectroscopy (MS).
Recorded measurements of inhibition at 10 µM, one per entry
Returns: string containing the number followed by the unit.

Solved cases (5 shown):
chem_smiles=Nc1ncc(-c2ccc(NS(=O)(=O)C3CC3)cc2F)cc1-c1ccc2c(c1)CCNC2=O measured_quantity="inhibition at 10 µM" recorded_measurement=72.7%
chem_smiles=CN(C1CC1)S(=O)(=O)c1ccc(-c2cnc(N)c(-c3ccc4c(c3)CCNC4=O)c2)c(F)c1 measured_quantity="inhibition at 10 µM" recorded_measurement=75.6%
chem_smiles=COc1cc(NS(=O)(=O)C2CC2)ccc1-c1cnc(N)c(-c2ccc3c(c2)CCNC3=O)c1 measured_quantity="inhibition at 10 µM" recorded_measurement=77.8%
chem_smiles=Nc1ncc(-c2cccc3ncsc23)cc1-c1ccc2c(c1)CCNC2=O measured_quantity="inhibition at 10 µM" recorded_measurement=47.7%
chem_smiles=Nc1ncc(-c2ccc(NS(=O)(=O)C3CC3)cc2OC2CCCCC2)cc1-c1ccc2c(c1)CCNC2=O measured_quantity="inhibition at 10 µM" recorded_measurement=73.3%

Switching to the query record.
Exercise: Recorded inhibition at 10 µM for Nc1ncc(-c2cccc([N+](=O)[O-])c2F)cc1-c1ccc2c(c1)CCNC2=O with KHS1 (Homo sapiens (Human)), please?
Solution: 79.5%
